Provenance of the data: paper PMC5165034

target: influenza virus X-31 hemagglutinin (HA) (Influenza A virus X-31 (H3N2; HA of …, UniProt P03437, strain)
quantity: binding result

In the examples that follow, each entry is paired with its recorded binding result.
1C9 (VHH) VHH: EVQLVESGGGLVKPGGSLRLSCAASGFTFSDYYMSWIRQAPGKGLEWVSYISSSGSTIYYADSVKGRFTISRDNAKNSLYLQMNSLRAEDTAVYYCAKGISTTGDYWGQGALVSVSS    binds
1H4 (VHH) VHH: EVQLVESGGGLVKPGGSLRLSCAASGFTFSDYYMSWIRQAPGKGLEWVSYISSSGSTIYYADSVKGRFTISRDNAKNSLYLQMNSLRAEDTAVYYCARGIAMVEDSWGQGTLVTVSS    binds
4H7 (VHH) VHH: EVQLVESGGGLVKPGGSLRLSCAASGFTFSDYYMSWIRQAPGKGLEWVSYISSSGSTIYYADSVKGRFTISRDNAKNSLYLQMNSLRAEDTAVYYCARGISVTGDSWGQGTLVTVSS    binds
4D7 (VHH) VHH: EVQLVEFGGGLVKPGGSLRLSCAASGFTFSDYYMSWIRQAPGKGLEWVSYISSSGSNIYYADSVKGRFTITRDNAKNSLYLQMNSLRAEDTAVYYCARGISMTGDYWGQGTQVTVSS    binds
4F5 (VHH) VHH: EVQLVESGGGLVKPGGSLRLSCAASGFTFSDYYMSWIRQAPGKGLEWVSYISSSGSTIYYADSVKGRFTISRDNAKNSLYLQMNSLRAEDTAVYYCARRRSLTVGAPTYWGQGTLVTVSS    binds
1C8 (VHH) VHH: EVQLVESGGGLVKPGGSLRLSCAASGFTFSDYYMSWIRQAPGKGLEWVSYISSSGSTIYYADSVKGRFTISRDNAKNSLYLQMNSLRAEDTAVYYCARGISMVGDNWGQGTLVTVSS    binds

Complete the entry with binding result for 1B1 (VHH) VHH: EVQLVESGGGLVKSGGSLRLSCAASGFTFSDYYMSWIRQAPGKGLEWVSYISSSGSTIYYADSVKGRFTISRDNAKNSLYLQMNSLRAEDTAVYYCARGISMARDYWGQGTLVTVSS
binds

Complete the entry with binding result for 6F7 (VHH) VHH: EVQLVESGGGLVKPGGSLRLSCAASGFTFSDYYMSWIRQAPGKGLEWVSYISSSGRTIYYADSVKGRFTISRDNAKNSLYLQMNSLRAEDTAVYYCARGGIAVAGTTRHYSDYWGQGTLVTVSS
binds

Complete the entry with binding result for 7H12 (VHH) VHH: EVQLVESGGGLVKPGGSLRLSCAASGFTFSDYYMSWIRQAPGKGLEWVSYISSSGSTIYYADSVKGRFTISRDNAKNSLYLQMNSLRAEDTAVYYCARGISMVGDYWGQGTLVTVSS
binds

Complete the entry with binding result for 4G9 (VHH) VHH: EVQLLESGGGLVQRGGSLRLSCAASGFTFSSYAMSWVRQAPGKGLEWVSAISGSGGSTHYADSVKGRFTISRDNSKNTLYLQMNSLRAEDTAVYYCAKKGDRGYFFDYWGQGTLVTVSS
binds
